Measured normalized growth values are reported for all entries that follow.
experiment: chemical genetic growth profiling, strain panel (AID 1159580);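 also: tested at 20 µM; growth read once vehicle control cultures reached saturation at 30 °C; 1 = growth at the plate median or of vehicle wells; lower values mean less growth of the strain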; settings: S. cerevisiae deletion strains, growth OD, locus YBR171W, strain sec66, active compounds read low
Out of some 5,500 compounds screened, about 2,000 (36%) were called active. Not shown: some 18% with an inconclusive outcome. Some of the results follow.
Write the number on its own, no unit after it.

Examples from the recorded data:
[[record]]
molecule = "CCCN(CCC)c1c([N+](=O)[O-])cc(C(F)(F)F)cc1[N+](=O)[O-]"
endpoint_label = "normalized growth"
measured = 0.985

[[record]]
molecule = "CCC1(C2=NCCN2)Cc2ccccc2O1 (stereo not given)"
endpoint_label = "normalized growth"
measured = 1.02

[[record]]
molecule = "CC(=O)OCC1=C(C(=O)O)N2C(=O)[C@@H](NC(=O)CSc3ccncc3)[C@H]2SC1"
endpoint_label = "normalized growth"
measured = 1.02

[[record]]
molecule = "COC(=O)CC1C(C)(C(=O)c2ccoc2)CC2OCC34C(CC(=O)OC)C5(C)CC36OC3(C)OC1(C(OC(C)=O)C6(OC(C)=O)C5OC(=O)C(C)C)C24O3 (stereo not given)"
endpoint_label = "normalized growth"
measured = 0.981

[[record]]
molecule = "COc1cc2c(cc1OC)C(C)NCC2 (stereo not given)"
endpoint_label = "normalized growth"
measured = 0.958


Memo: COC(=O)C[C@H]1C(C)(C)[C@@H](OC(C)=O)[C@@H]2CC3=C4CC(=O)O[C@@H](c5ccoc5)[C@]4(C)CCC3[C@@]1(C)C2=O (stereo not given in full) , reported normalized growth: 0.996

Memo: CCCCN(CC)c1c([N+](=O)[O-])cc(C(F)(F)F)cc1[N+](=O)[O-] , reported normalized growth: 1.03

Memo: CC(=O)c1ccc[nH]1 , reported normalized growth: 1.01

Memo: O=c1c(O)c(-c2ccccc2)oc2cc(O)ccc12 , reported normalized growth: 0.825

Memo: O=c1c(O)c(-c2ccc(O)cc2)oc2ccccc12 , reported normalized growth: 0.903
